System: 201T
Experiment: relative viability (nuclei count vs DMSO), 5 days (fraction); higher = more cells survive
Settings: first compound 0.01 µM
Listed here are compounds together with their documented relative viability.
measured.quantity: relative viability

compound | observed.value
NC(=O)Nc1cc(-c2cccc(F)c2)sc1C(=O)N[C@H]1CCCNC1 [AZD7762] + CCNC(=O)c1noc(-c2cc(C(C)C)c(O)cc2O)c1-c1ccc(CN2CCOCC2)cc1 [Luminespib] (partner 0.01 µM) | 1.11
NC(=O)Nc1cc(-c2cccc(F)c2)sc1C(=O)N[C@H]1CCCNC1 [AZD7762] + O=C(c1cc(Cc2n[nH]c(=O)c3ccccc23)ccc1F)N1CCN(C(=O)C2CC2)CC1 [Olaparib] (partner 8 µM) | 0.821
NC(=O)Nc1cc(-c2cccc(F)c2)sc1C(=O)N[C@H]1CCCNC1 [AZD7762] + COc1cc2c(Oc3ccc(NC(=O)C4(C(=O)Nc5ccc(F)cc5)CC4)cc3F)ccnc2cc1OCCCN1CCOCC1 [Foretinib] (partner 0.25 µM) | 1.17
NC(=O)Nc1cc(-c2cccc(F)c2)sc1C(=O)N[C@H]1CCCNC1 [AZD7762] + CS(=O)(=O)CCNCc1ccc(-c2ccc3ncnc(Nc4ccc(OCc5cccc(F)c5)c(Cl)c4)c3c2)o1 [Lapatinib] (partner 2 µM) | 1.03

---

Listed here are molecules together with their documented relative viability.
System: NCI-H650
Assay: relative viability (nuclei count vs DMSO), 5 days (fraction); higher = more cells survive
Details: first compound 0.8 µM
measured.quantity: relative viability

molecule | observed.value
Oc1nc(-c2ccc(C(F)(F)F)cc2)nc2c1CSCC2 [XAV939] + NC(=O)Nc1cc(-c2cccc(F)c2)sc1C(=O)N[C@H]1CCCNC1 [AZD7762] (partner 0.2 µM) | 1.02
Oc1nc(-c2ccc(C(F)(F)F)cc2)nc2c1CSCC2 [XAV939] + C[C@]1(O)C[C@@H](c2nc(-c3ccc4ccc(-c5ccccc5)nc4c3)c3c(N)nccn32)C1 [Linsitinib] (partner 1 µM) | 0.911
Oc1nc(-c2ccc(C(F)(F)F)cc2)nc2c1CSCC2 [XAV939] + CCNC(=O)c1noc(-c2cc(C(C)C)c(O)cc2O)c1-c1ccc(CN2CCOCC2)cc1 [Luminespib] (partner 0.01 µM) | 0.93
C=C1C(=O)O[C@@H](CCCCCCCC)[C@@H]1C(=O)O [C-75] + Cc1cc(Nc2cc(N3CCN(C)CC3)nc(Sc3ccc(NC(=O)C4CC4)cc3)n2)n[nH]1 [Tozasertib] (partner 0.1 µM) | 0.718
C=C1C(=O)O[C@@H](CCCCCCCC)[C@@H]1C(=O)O [C-75] + Nc1ncn([C@H]2C[C@H](O)[C@@H](CO)O2)c(=O)n1 [Decitabine] (partner 2 µM) | 0.329
C=C1C(=O)O[C@@H](CCCCCCCC)[C@@H]1C(=O)O [C-75] + C[C@@H](Oc1cc(-c2cnn(C3CCNCC3)c2)cnc1N)c1c(Cl)ccc(F)c1Cl [Crizotinib] (partner 1 µM) | 0.668
Oc1nc(-c2ccc(C(F)(F)F)cc2)nc2c1CSCC2 [XAV939] + COc1cccc2cc(-c3nc([C@H]4CC[C@H](C(=O)O)CC4)n4ncnc(N)c34)[nH]c12 [OSI-027] (partner 0.5 µM) | 0.493

---

Test system: LCLC-103H
Test: relative viability (nuclei count vs DMSO), 5 days (fraction); higher = more cells survive
Conditions: first compound 0.01581 µM

compound | relative viability
CC1(C)CCC(c2ccc(Cl)cc2)=C(CN2CCN(c3ccc(C(=O)NS(=O)(=O)c4ccc(N[C@H](CCN5CCOCC5)CSc5ccccc5)c(S(=O)(=O)C(F)(F)F)c4)cc3)CC2)C1 [Navitoclax] + Cc1nc(NC(=O)N2CCC[C@H]2C(N)=O)sc1-c1ccnc(C(C)(C)C(F)(F)F)c1 [Alpelisib] (partner 2 µM) | 1.13
CC1(C)CCC(c2ccc(Cl)cc2)=C(CN2CCN(c3ccc(C(=O)NS(=O)(=O)c4ccc(N[C@H](CCN5CCOCC5)CSc5ccccc5)c(S(=O)(=O)C(F)(F)F)c4)cc3)CC2)C1 [Navitoclax] + COc1cccc2cc(-c3nc([C@H]4CC[C@H](C(=O)O)CC4)n4ncnc(N)c34)[nH]c12 [OSI-027] (partner 0.5 µM) | 0.449
CC1(C)CCC(c2ccc(Cl)cc2)=C(CN2CCN(c3ccc(C(=O)NS(=O)(=O)c4ccc(N[C@H](CCN5CCOCC5)CSc5ccccc5)c(S(=O)(=O)C(F)(F)F)c4)cc3)CC2)C1 [Navitoclax] + Cc1cc(Nc2cc(N3CCN(C)CC3)nc(Sc3ccc(NC(=O)C4CC4)cc3)n2)n[nH]1 [Tozasertib] (partner 0.1 µM) | 0.516
CC1(C)CCC(c2ccc(Cl)cc2)=C(CN2CCN(c3ccc(C(=O)NS(=O)(=O)c4ccc(N[C@H](CCN5CCOCC5)CSc5ccccc5)c(S(=O)(=O)C(F)(F)F)c4)cc3)CC2)C1 [Navitoclax] + CCNC(=O)c1noc(-c2cc(C(C)C)c(O)cc2O)c1-c1ccc(CN2CCOCC2)cc1 [Luminespib] (partner 0.01 µM) | 1.03

---

# relative viability per entry
Tested on: EKVX
Test: relative viability (nuclei count vs DMSO), 5 days (fraction); higher = more cells survive
Details: first compound 0.04 µM

compound | relative viability
O=C(O)c1ccc(-c2c[nH]c3ncc(-c4ccccc4)cc23)cc1C1CCCC1 + O=C(CCCCCCC(=O)Nc1ccccc1)NO [Vorinostat] (partner 1 µM) | 0.846
O=C(O)c1ccc(-c2c[nH]c3ncc(-c4ccccc4)cc23)cc1C1CCCC1 + COc1cccc2cc(-c3nc([C@H]4CC[C@H](C(=O)O)CC4)n4ncnc(N)c34)[nH]c12 [OSI-027] (partner 0.5 µM) | 0.736
O=C(O)c1ccc(-c2c[nH]c3ncc(-c4ccccc4)cc23)cc1C1CCCC1 + C[C@]1(O)C[C@@H](c2nc(-c3ccc4ccc(-c5ccccc5)nc4c3)c3c(N)nccn32)C1 [Linsitinib] (partner 1 µM) | 0.984
O=C(O)c1ccc(-c2c[nH]c3ncc(-c4ccccc4)cc23)cc1C1CCCC1 + O=C(c1cc(Cc2n[nH]c(=O)c3ccccc23)ccc1F)N1CCN(C(=O)C2CC2)CC1 [Olaparib] (partner 8 µM) | 0.88
O=C(O)c1ccc(-c2c[nH]c3ncc(-c4ccccc4)cc23)cc1C1CCCC1 + C[C@@H](Oc1cc(-c2cnn(C3CCNCC3)c2)cnc1N)c1c(Cl)ccc(F)c1Cl [Crizotinib] (partner 1 µM) | 1.13

---

Test system: LCLC-103H
Test: relative viability (nuclei count vs DMSO), 5 days (fraction); higher = more cells survive
Conditions: first compound 0.05 µM
relative viability under 1 gets label 1, anything at or over 1 gets label 0.

compound | target.or.system | group.label
CC1(C)CCC(c2ccc(Cl)cc2)=C(CN2CCN(c3ccc(C(=O)NS(=O)(=O)c4ccc(N[C@H](CCN5CCOCC5)CSc5ccccc5)c(S(=O)(=O)C(F)(F)F)c4)cc3)CC2)C1 [Navitoclax] + COc1cccc2cc(-c3nc([C@H]4CC[C@H](C(=O)O)CC4)n4ncnc(N)c34)[nH]c12 [OSI-027] (partner 0.5 µM) | LCLC-103H | label 1
CC1(C)CCC(c2ccc(Cl)cc2)=C(CN2CCN(c3ccc(C(=O)NS(=O)(=O)c4ccc(N[C@H](CCN5CCOCC5)CSc5ccccc5)c(S(=O)(=O)C(F)(F)F)c4)cc3)CC2)C1 [Navitoclax] + CC(C)C[C@H](NC(=O)[C@H](Cc1ccccc1)NC(=O)c1cnccn1)B(O)O [Bortezomib] (partner 0.002 µM) | LCLC-103H | label 0
CC1(C)CCC(c2ccc(Cl)cc2)=C(CN2CCN(c3ccc(C(=O)NS(=O)(=O)c4ccc(N[C@H](CCN5CCOCC5)CSc5ccccc5)c(S(=O)(=O)C(F)(F)F)c4)cc3)CC2)C1 [Navitoclax] + O=C(CCCCCCC(=O)Nc1ccccc1)NO [Vorinostat] (partner 1 µM) | LCLC-103H | label 1
CC1(C)CCC(c2ccc(Cl)cc2)=C(CN2CCN(c3ccc(C(=O)NS(=O)(=O)c4ccc(N[C@H](CCN5CCOCC5)CSc5ccccc5)c(S(=O)(=O)C(F)(F)F)c4)cc3)CC2)C1 [Navitoclax] + Cc1nc(NC(=O)N2CCC[C@H]2C(N)=O)sc1-c1ccnc(C(C)(C)C(F)(F)F)c1 [Alpelisib] (partner 2 µM) | LCLC-103H | label 1
CC1(C)CCC(c2ccc(Cl)cc2)=C(CN2CCN(c3ccc(C(=O)NS(=O)(=O)c4ccc(N[C@H](CCN5CCOCC5)CSc5ccccc5)c(S(=O)(=O)C(F)(F)F)c4)cc3)CC2)C1 [Navitoclax] + NC(=O)Nc1cc(-c2cccc(F)c2)sc1C(=O)N[C@H]1CCCNC1 [AZD7762] (partner 0.2 µM) | LCLC-103H | label 1
CC1(C)CCC(c2ccc(Cl)cc2)=C(CN2CCN(c3ccc(C(=O)NS(=O)(=O)c4ccc(N[C@H](CCN5CCOCC5)CSc5ccccc5)c(S(=O)(=O)C(F)(F)F)c4)cc3)CC2)C1 [Navitoclax] + Nc1nc2[nH]cc(CCc3ccc(C(=O)N[C@@H](CCC(=O)O)C(=O)O)cc3)c2c(=O)[nH]1 [Pemetrexed] (partner 0.2 µM) | LCLC-103H | label 1
